TEST_PROTOCOL: gradient 5% acetonitrile 3 min, to 50% in 2 min, to 85% in 15 min, held 3 min, 100 µL/min
CONDITIONS: column: Zorbax Extend-C18 2.1 x 50 mm; eluents: water / acetonitrile, 0.1% formic acid
Quick list: RP-LC retention time per entry.
Your answer should be a plain number; it is taken to be in s.

As a guide, the following entries are already answered.
{"columns": ["MOLECULE", "NUMERIC_READOUT"],
 "data": [
  ["Cc1ccc2c(Nc3ccc4c(c3)OCCO4)c(C(=O)N3CCC(C)CC3)cnc2n1", 649],
  ["CCCCn1c(=O)c2ccccc2n(Cc2nc(-c3ccccc3C)no2)c1=O", 1240],
  ["CCc1noc(C2(NC(=O)c3cc(-c4ccccc4)n[nH]3)CCCCC2)n1", 906],
  ["O=C(O)CSc1nnc(COc2cccc3cccnc23)n1-c1ccccc1", 577],
  ["Cc1ccc(NS(=O)(=O)c2cn(C)c3ncccc23)cc1", 774],
  ["CCOC(=O)c1ncoc1-c1ccccc1C(=O)NC(C)C", 676],
  ["CCOC(=O)C1CCN(Cc2nc(-c3ccc(N4CCCCCC4)nc3)no2)CC1", 600],
  ["Cc1ccc(CNC(=O)C2(C)Cn3nc(C(=O)NCCCN4CCCCC4)cc3C(=O)N2C)cc1 (stereo not given)", 598],
  ["CCOc1cc(-c2cccc(Cl)c2)nc2ccc(NC(=O)c3ccco3)cc12", 830],
  ["CCOc1ccc(NC(=O)N(C)CCc2noc(COc3ccccc3)n2)cc1", 890]
]}

Prompt: Need RP-LC retention time, item COc1ccc(C2(C(=O)Nc3cc(-c4nnc(C)o4)sc3C)CC2)cc1
Completion: 989

Prompt: Which RP-LC retention time value is on record for Cn1c(C(=O)NCc2ccccn2)cc2c(=O)oc3ccccc3c21 ?
Completion: 607

Prompt: Request the reported RP-LC retention time associated with O=C(c1cccc(Cn2cncn2)c1)N1CCC2(CC1)OCCO2
Completion: 607

Prompt: Request the reported RP-LC retention time associated with O=C(NCc1ccccc1)C1CCCCN1S(=O)(=O)c1ccc(F)cc1 (stereo not given)
Completion: 940

Prompt: Suppose we examine the molecule Cc1ccc(C)c(N2CCN(S(=O)(=O)c3c(C)sc(C)c3-c3n[nH]c(C)c3C)CC2)c1 ; what RP-LC retention time value has been reported?
Completion: 1190

Prompt: Request the reported RP-LC retention time associated with CC(=O)Nc1ccc2nc(-c3ccc(Cl)cc3)cc(OCC(N)=O)c2c1
Completion: 621

Prompt: Recorded RP-LC retention time for CC(=O)Nc1ccc(SCc2c(F)cccc2Cl)nn1 , please?
Completion: 787

----------
TEST_PROTOCOL: gradient 5% acetonitrile 3 min, to 50% in 2 min, to 85% in 15 min, held 3 min, 100 µL/min
CONDITIONS: column: Zorbax Extend-C18 2.1 x 50 mm; eluents: water / acetonitrile, 0.1% formic acid
Classes based on RP-LC retention time: group 1 (below 700 s), group 2 (700 s to below 900 s), group 3 (900 s or more)

Worked examples, 5 compounds total:
{"columns": ["COMPOUND", "ANSWER_LABEL"],
 "data": [
  ["CCN1C(=O)C(C)(C(=O)Nc2ccccc2F)Oc2cccnc21 (stereo not given)", "group 2"],
  ["COC(=O)Cn1c(C)cc(=O)n2nc(-c3ccccc3Cl)nc12", "group 2"],
  ["Cc1ccc(N2CCN(S(=O)(=O)c3cc(-c4cc(C)no4)cs3)CC2)c(C)c1", "group 3"],
  ["COc1ccc(NC(=O)C2(C)Oc3cccnc3NC2=O)cc1OC (stereo not given)", "group 1"],
  ["Cc1cc(N2CCN(C(=O)c3ccccc3F)CC2)nc(N2CCOCC2)n1", "group 1"]
]}

Prompt: Category of O=C1CN(C(=O)COc2cccc3ccccc23)c2ccccc2N1 :
Completion: group 2
